- SYSTEM TESTED: MYT1 protein (Homo sapiens (Human), UniProt Q99640)
- Sequence (Q99640 whole entry): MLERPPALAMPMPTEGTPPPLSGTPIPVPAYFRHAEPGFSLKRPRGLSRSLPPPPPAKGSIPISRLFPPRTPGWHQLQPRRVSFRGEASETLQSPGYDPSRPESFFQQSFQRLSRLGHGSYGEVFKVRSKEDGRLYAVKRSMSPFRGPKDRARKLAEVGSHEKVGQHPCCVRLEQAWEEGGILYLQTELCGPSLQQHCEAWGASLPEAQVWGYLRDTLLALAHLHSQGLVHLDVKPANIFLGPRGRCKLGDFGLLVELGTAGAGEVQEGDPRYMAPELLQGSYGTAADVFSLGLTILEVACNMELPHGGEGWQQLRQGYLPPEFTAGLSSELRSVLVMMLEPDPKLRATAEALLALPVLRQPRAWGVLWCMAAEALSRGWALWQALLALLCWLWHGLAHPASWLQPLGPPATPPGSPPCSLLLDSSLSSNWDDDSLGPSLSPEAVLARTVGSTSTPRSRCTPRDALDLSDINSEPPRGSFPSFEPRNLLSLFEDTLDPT
- MEASUREMENT PROTOCOL: Test for binding to ATP binding site of MYT1 (Kinase Tracer 178 / Eu-Anti-GST antibody TR-FRET)
- STATED CONDITIONS: ATP binding site of MYT1, 30 minutes at room temperature
Structures can show the parent of a compound that is named as a salt.
# IC50 annotations
ENDPOINT: IC50 (nM)

COMPOUND	ENDPOINT	MEASURED RESULT
Nc1c(-c2cccc(O)c2)c2ccc3ncccc3c2[nH]c1=O [Compound C184, hydrobromide]	IC50	10
COc1ccc2c(n1)c(OC)cc1c(-c3ccc(F)c4[nH]ncc34)c(N)c(=O)[nH]c12	IC50	4.9
Nc1c(-c2ccc(F)c3[nH]ncc23)c2cc(OC3CCCCC3)c3ncccc3c2[nH]c1=O	IC50	4.5
Nc1c(-c2ccc(F)c3[nH]ncc23)c2cc(C3CCN(C4COC4)CC3)c3cccnc3c2[nH]c1=O	IC50	0.53

----------
- SYSTEM TESTED: MYT1 protein (Homo sapiens (Human), UniProt Q99640)
- MEASUREMENT PROTOCOL: Test for binding to ATP binding site of MYT1 (Kinase Tracer 178 / Eu-Anti-GST antibody TR-FRET)
- STATED CONDITIONS: ATP binding site of MYT1, 30 minutes at room temperature
Counter-ions that a name gives are not always drawn.
# IC50 annotations

COMPOUND	SYSTEM TESTED	UNIT OF MEASUREMENT	IC50
CCCc1cc(Cl)cc2c(-c3ccc(Cl)c4[nH]ncc34)c(N)c(=O)[nH]c12	MYT1 protein (Homo sapiens (Human), UniProt Q99640)	nM	270
CC(C)Oc1cc2c(-c3ccc(F)c4[nH]ncc34)c(N)c(=O)[nH]c2c2ccc(=O)[nH]c12	MYT1 protein (Homo sapiens (Human), UniProt Q99640)	nM	3.5
Nc1c(-c2ccc(Cl)c3[nH]ncc23)c2cc(C3CCC3)c3ncccc3c2[nH]c1=O	MYT1 protein (Homo sapiens (Human), UniProt Q99640)	nM	5.2
Nc1c(-c2ccc(F)c3[nH]ncc23)c2cc(OCC(F)F)c3ncccc3c2[nH]c1=O	MYT1 protein (Homo sapiens (Human), UniProt Q99640)	nM	1.1
CCOc1cc2c(-c3cc(F)c(Cl)c4[nH]ncc34)c(N)c(=O)[nH]c2c2cccnc12	MYT1 protein (Homo sapiens (Human), UniProt Q99640)	nM	1.7
Nc1c(-c2ccc(F)c3[nH]ncc23)c2cc(C3CCCC3)c3ccccc3c2[nH]c1=O	MYT1 protein (Homo sapiens (Human), UniProt Q99640)	nM	24
Nc1c(-c2ccc(F)c3[nH]ncc23)c2cc(C3CNC3)c3ncccc3c2[nH]c1=O [Compound C132, formate]	MYT1 protein (Homo sapiens (Human), UniProt Q99640)	nM	11
Cc1cc2ncccc2c2[nH]c(=O)c(N)c(-c3cc(F)c(F)c4[nH]ncc34)c12	MYT1 protein (Homo sapiens (Human), UniProt Q99640)	nM	0.43

----------
- SYSTEM TESTED: MYT1 protein (Homo sapiens (Human), UniProt Q99640)
- MEASUREMENT PROTOCOL: MYT1 kinase activity inhibition test (ELISA, phosphorylation of Y15 of CDK1)
- Format: biochemical
- STATED CONDITIONS: phosphorylation level of Y15 of CDK1 protein caused by MYT1 protein, 60 minutes
pIC50: −log10 of the molar value.
Kind request: treat 9 as inclusive, so pIC50 at 9 or higher is Y, anything lower is N.

COMPOUND	LABEL
Cl.Nc1c(-c2cccc3[nH]ncc23)c2cc(C3CC3)c3cc(F)ccc3c2[nH]c1=O [Compound B48, hydrochloride]	N
COc1cc2c(-c3cc(F)c(F)c4[nH]ncc34)c(N)c(=O)[nH]c2c2cccnc12	Y
Nc1c(-c2cccc3[nH]ncc23)c2ccc3ncccc3c2[nH]c1=O	N
Nc1c(-c2ccc(F)c3[nH]ncc23)c2cc(C3CCNC3)c3ncccc3c2[nH]c1=O.O=CO (centres unmarked) [Compound C146, formate]	N
Nc1c(-c2cccc(O)c2)c2cc(C3CC3)c3ccccc3c2[nH]c1=O	Y
Nc1c(-c2ccc(F)c3[nH]ncc23)c2cc(Br)c3ncccc3c2[nH]c1=O	Y
CCOc1cc2c(-c3cc(F)c(F)c4[nH]ncc34)c(N)c(=O)[nH]c2c2cccnc12	Y

Values compiled from patent US20260062412A1.
